Entry source: patent US20260139048A1

Molecular target: T1, His-tagged human TIGIT (human, UniProt Q495A1 22-141)
T1 construct: SPR analyte; also called human TIGIT protein; not shown: His tag
T1 sequence: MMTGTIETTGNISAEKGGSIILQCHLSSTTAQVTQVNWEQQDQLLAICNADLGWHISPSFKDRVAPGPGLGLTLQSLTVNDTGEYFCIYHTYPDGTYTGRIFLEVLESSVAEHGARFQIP
Test: SPR (Biacore T200), antibody captured, His-tagged TIGIT analyte
readout-type: kon (M⁻¹ s⁻¹)
State just the number; it will be interpreted in M⁻¹ s⁻¹.

TIGIT-3 chimeric antibody (antibody, human IgG1, kappa, V domains shown, also called 3VH + 3VL) VH: EVQLVESGGGLVQPGGSLKLSCAASGFTFSSYGMSWVRQTPDKRLELVATIKSDGGSTNLPDSVKGRFTISRDNAKNTLHLQMSSLKSEDTAMYYCVRGYFDYWGQGTSVTVSS VL: DIVMTQSHKFMSTSVGDRVSITCKASQDVKTAVAWYQQKPGQSPKLLIYWSSTRHTGVPDRFTGSRSLTDHTLTISSVQAEDLALYYCQQYYSTPYTFGGGTKLELKR : 630000
huTIGIT-19-4 (antibody, human IgG1, kappa, V domains shown, Humanized IgG; also called 19VH4.M10 + 19VL1.M7) VH: QVQLVQSGAEVKKPGASVKVSCKASGYTFTRYSMYWVRQAPGQGLEWIAFIDAYSGGSTYAQKFQGKATLTVDTSISTAYMELSRLRSDDTAVYYCARGGDYGWYLGVWGQGTLVTVSS VL: DIQMTQSPSSLSASVGDRVTITCRASQSIYSYLSWYQQKPGKAPKLLIYNAKSLPSGVPSRFSGSGSGTDFTLTISSLQPEDFATYYCQHHYGNPLTFGQGTKVEIKR : 1.2e+06

Okay, next one:
q: Quick check: kon of huTIGIT-6-2 (antibody, human IgG1, kappa, V domains shown, Humanized IgG; also called 6VH6.M5 + 6VL1.M1) VH: QVQLVQSGAEVKKPGASVKVSCKASGYTITENTMHWVRQAPGQRLEWIGGINPNNAGTSYSQKFQGRATLTVDTSASTAYMELSSLRSEDTAVYYCTRSSYYRYDLDYWGQGTTVTVSS VL: DIQMTQSPSSLSASVGDRVTITCQASQDIKTALAWYQQKPGKAPKLLIYSASYRYTGVPSRFSGSGSGTDFTFTISSLQPEDIATYYCHQHYTTPWTFGGGTKLEIKR ?
a: 350000
